assayed.system: T1, talin-1 head domain (THD1) (UniProt P26039 1-405)
T1 construct: talin-1 (TLN1) head domain (THD), residues 1-405; murine TLN1 cDNA is named only for the cell lines; also called WT; source: E. coli (DE3) Rosetta 2, purified (IMAC, SEC); not shown: His10-SUMO, N-terminal, cleaved
T1 sequence (P26039 1-405): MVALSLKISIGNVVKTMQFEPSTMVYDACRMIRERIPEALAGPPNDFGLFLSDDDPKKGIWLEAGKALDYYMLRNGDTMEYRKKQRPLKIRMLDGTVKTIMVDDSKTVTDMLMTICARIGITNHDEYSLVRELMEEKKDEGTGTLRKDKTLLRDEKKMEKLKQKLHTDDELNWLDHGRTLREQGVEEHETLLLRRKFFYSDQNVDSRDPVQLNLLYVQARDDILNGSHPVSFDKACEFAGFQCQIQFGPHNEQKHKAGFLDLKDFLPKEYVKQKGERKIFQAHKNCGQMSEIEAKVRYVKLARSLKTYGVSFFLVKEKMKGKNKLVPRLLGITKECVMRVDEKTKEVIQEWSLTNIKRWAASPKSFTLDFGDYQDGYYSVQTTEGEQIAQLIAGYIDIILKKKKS
assay.name: MST; apparent; THD1 or THD1 mutants titrated to 488–β3-CT in the presence of 30-40 µM KIND2; MST buffer
condition.notes: both partners purified
No end group written: not given here.
quantity: Kd (µM)
Your answer should be a plain number; it is taken to be in µM.

Data request: Item under review: {ATTO 488}-KLLITIHDRKEFAKFEEERARAKWDTANNPLYKEATSTFTNITYRGT (peptide, UniProt O54890 741-787, looked up, integrin β3 cytoplasmic tail (β3-CT); source: synthetic peptide (MPIB Core Facility)) [ATTO 488-labeled integrin β3 cytoplasmic tail (488–β3-CT)] . Reported Kd?
Data returned: 95
